Exercise: state measured log10 IC50 for each of the molecules provided.
Target: PIK3CA (human), P42336 [Antiproliferation of PI3K Mutated BT20 Cells]
Sequence (P42336 whole entry, looked up, change not shown): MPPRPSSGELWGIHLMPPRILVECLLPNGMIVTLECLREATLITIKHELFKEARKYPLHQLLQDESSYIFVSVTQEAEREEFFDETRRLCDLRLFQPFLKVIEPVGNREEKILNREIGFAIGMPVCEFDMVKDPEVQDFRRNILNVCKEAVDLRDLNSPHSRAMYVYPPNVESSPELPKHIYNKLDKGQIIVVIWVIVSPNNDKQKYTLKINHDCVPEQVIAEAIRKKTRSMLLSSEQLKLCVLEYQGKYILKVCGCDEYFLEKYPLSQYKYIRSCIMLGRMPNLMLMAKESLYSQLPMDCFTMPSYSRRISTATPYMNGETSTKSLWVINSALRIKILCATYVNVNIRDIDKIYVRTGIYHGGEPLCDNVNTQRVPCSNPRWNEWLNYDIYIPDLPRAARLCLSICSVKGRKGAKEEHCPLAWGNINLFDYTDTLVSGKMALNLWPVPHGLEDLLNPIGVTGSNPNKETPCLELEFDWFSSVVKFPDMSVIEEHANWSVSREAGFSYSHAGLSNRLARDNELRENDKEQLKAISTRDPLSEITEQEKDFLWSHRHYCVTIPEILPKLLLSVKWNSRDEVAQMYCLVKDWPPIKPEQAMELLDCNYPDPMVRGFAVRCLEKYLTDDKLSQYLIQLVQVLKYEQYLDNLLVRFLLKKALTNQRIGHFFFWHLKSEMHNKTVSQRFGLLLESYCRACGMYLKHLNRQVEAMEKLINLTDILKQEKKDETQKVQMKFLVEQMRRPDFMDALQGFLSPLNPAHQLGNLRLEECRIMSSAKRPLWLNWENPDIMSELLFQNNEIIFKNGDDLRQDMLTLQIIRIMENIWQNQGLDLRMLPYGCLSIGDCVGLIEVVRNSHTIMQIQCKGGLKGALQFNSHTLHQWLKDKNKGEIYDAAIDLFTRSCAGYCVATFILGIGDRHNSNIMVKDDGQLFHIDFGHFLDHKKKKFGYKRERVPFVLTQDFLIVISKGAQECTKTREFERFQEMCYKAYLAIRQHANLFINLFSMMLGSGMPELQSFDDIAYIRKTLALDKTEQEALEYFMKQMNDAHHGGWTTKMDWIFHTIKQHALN
Experiment: Cell-Based Assay
Hey, these are logged values: log10 of IC50, nM being the unit before logging.

Prompt line: Recorded log10 IC50 for Cc1nc(N)nc2c1cc(Br)c(=O)n2[C@H]1CC[C@@H](O)CC1 , please?
Response line: 2.36

Prompt line: Would you kindly repeat that for Cc1nc(N)nc2c1cc(-c1cccc(CO)c1)c(=O)n2C1CCCC1 ?
Response line: 1.31

Prompt line: Would you kindly repeat that for CNc1nc(C)c2cc(-c3cccc(CO)c3)c(=O)n(C3CCCC3)c2n1 ?
Response line: 1.17

Prompt line: Would you kindly repeat that for Cc1nc(N)nc2c1cc(-c1cn[nH]c1)c(=O)n2[C@H]1CC[C@H](OCCO)CC1 ?
Response line: 1.53

Prompt line: Would you kindly repeat that for Cc1nc(N)nc2c1cc(-c1cnc(N)cn1)c(=O)n2C1CCCC1 ?
Response line: 1.25

Prompt line: Would you kindly repeat that for COc1ccc(-c2cc3c(C)nc(N)nc3n([C@H]3CC[C@@H](OCC(N)=O)CC3)c2=O)cn1 ?
Response line: 1.31

Prompt line: Would you kindly repeat that for CNc1nc(C)c2cc(Br)c(=O)n(CC3CCOC3)c2n1 (stereo not given) ?
Response line: 2.77

Prompt line: Would you kindly repeat that for CNc1nc(C)c2cc(-c3cccc(OC)c3)c(=O)n(C3CCCC3)c2n1 ?
Response line: 2.83

Prompt line: Would you kindly repeat that for Cc1nc(N)nc2c1cc(-c1cnc(O)nc1)c(=O)n2C(C)C ?
Response line: 3.40

Prompt line: Would you kindly repeat that for COc1ccc(-c2cc3c(C)nc(N)nc3n(C3CCCC3)c2=O)cc1F ?
Response line: 1.66

---

IC50, PIK3CA (human), per-entry values.
Just the number in nM, nothing appended.

Prompt line: Recorded IC50 for CNc1nc(C)c2cc(-c3cccc(O)c3)c(=O)n(C3CCCC3)c2n1 , please?
Response line: 0.731

Prompt line: Would you kindly repeat that for CNc1nc(C)c2cc(-c3c[nH]c(C)n3)c(=O)n(C3CCCC3)c2n1 ?
Response line: 67

Prompt line: Would you kindly repeat that for Cc1nc(N)nc2c1cc(-c1cn[nH]c1)c(=O)n2[C@H]1CC[C@@H](OCCO)CC1 ?
Response line: 29.7

Prompt line: Would you kindly repeat that for Cc1nc(N)nc2c1cc(-c1cnn(CC(C)(C)O)c1)c(=O)n2C1CCCC1 ?
Response line: 89

Prompt line: Would you kindly repeat that for COc1ccc(-c2cc3c(C)nc(N)nc3n([C@H]3C[C@H](OCCO)C3)c2=O)cn1 ?
Response line: 10.2

Prompt line: Would you kindly repeat that for Cc1nc(N)nc2c1cc(-c1cnc3[nH]ccc3c1)c(=O)n2CC1CCOC1 (stereo unspecified) ?
Response line: 2.8

Prompt line: Would you kindly repeat that for Cc1nc(N)nc2c1cc(Br)c(=O)n2CC1CCOC1 (stereo unspecified) ?
Response line: 94

Prompt line: Would you kindly repeat that for Cc1nc(N)nc2c1cc(-c1cncc(N)n1)c(=O)n2C1CCCC1 ?
Response line: 20

Prompt line: Would you kindly repeat that for CNc1nc(C)c2cc(-c3cncnc3)c(=O)n(C3CCCC3)c2n1 ?
Response line: 23

Prompt line: Would you kindly repeat that for Cc1nc(N)nc2c1cc(-c1cnc3ccccc3c1)c(=O)n2[C@H]1CC[C@H](O)CC1 ?
Response line: 8.2

Prompt line: Would you kindly repeat that for CCNc1nc(C)c2cc(-c3cnc(OC)nc3)c(=O)n([C@H]3CC[C@H](O)CC3)c2n1 ?
Response line: 1.59

Prompt line: Would you kindly repeat that for COc1ccc(-c2cc3c(C)nc(N)nc3n(N3CCCC3)c2=O)cn1 ?
Response line: 23

Prompt line: Would you kindly repeat that for CCNc1nc(C)c2cc(-c3cccc(O)c3)c(=O)n(C3CCCC3)c2n1 ?
Response line: 1.01

Prompt line: Would you kindly repeat that for COc1ccc(-c2cc3c(C)nc(N)nc3n([C@H]3CC[C@H](OC)CC3)c2=O)cn1 ?
Response line: 3.9

Prompt line: Would you kindly repeat that for COc1ncc(-c2cc3c(C)nc(N)nc3n(C(C)C)c2=O)cn1 ?
Response line: 2.2

Prompt line: Would you kindly repeat that for CNc1nc(C)c2cc(C(=O)Nc3ccon3)c(=O)n(C3CCCC3)c2n1 ?
Response line: 5

Prompt line: Would you kindly repeat that for Cc1nc(N)nc2c1cc(-c1cnc3[nH]ccc3c1)c(=O)n2C1CCOCC1 ?
Response line: 3.7

Prompt line: Would you kindly repeat that for COc1ccc(-c2cc3c(C)nc(N)nc3n(CCC3CC3)c2=O)cn1 ?
Response line: 11

Prompt line: Would you kindly repeat that for CNc1nc(C)c2cc(-c3ncccc3F)c(=O)n(C3CCCC3)c2n1 ?
Response line: 2100

Prompt line: Would you kindly repeat that for C#Cc1cc2c(C)nc(N)nc2n(C2CCC2)c1=O ?
Response line: 110

Prompt line: Would you kindly repeat that for CNc1nc(C)c2cc(-c3cn[nH]c3)c(=O)n(CC3CCOC3)c2n1 (stereo unspecified) ?
Response line: 6
